Listed next: entries and their corresponding IC50.
biological target: phosphorylated FGFR3 (SEQ ID NO: 5, amino acids 449 to 759) (Homo sapiens (Human), UniProt P22607)
Sequence (P22607 449-759): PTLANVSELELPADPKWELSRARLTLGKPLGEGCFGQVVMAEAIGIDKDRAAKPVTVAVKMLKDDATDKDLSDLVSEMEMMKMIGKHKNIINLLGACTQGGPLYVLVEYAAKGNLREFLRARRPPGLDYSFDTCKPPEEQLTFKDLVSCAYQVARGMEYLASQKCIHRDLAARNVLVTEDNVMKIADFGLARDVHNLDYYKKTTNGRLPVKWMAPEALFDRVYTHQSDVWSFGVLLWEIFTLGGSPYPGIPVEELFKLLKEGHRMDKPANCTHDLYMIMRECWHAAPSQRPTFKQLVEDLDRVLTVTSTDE
MEASURE: IC50 (nM)

compound="C=CC(=O)NC1CCC(NC(=O)c2ccc(-c3cc(OC)c4c(C#N)cnn4c3)cc2)CC1 (stereo not shown) [Example 167]" measure=IC50 readout_value=192
compound="C=CC(=O)N1CCC[C@@H](C(=O)N2CC[C@H](n3cc(-c4cc(OC)c5c(C#N)cnn5c4)cn3)C2)C1 [Example 64]" measure=IC50 readout_value=20
compound="C=CC(=O)N1CC(C(=O)N2CCN(c3ncc(-c4cc(OC)c5c(C#N)cnn5c4)cn3)CC2)C1 [Example 133]" measure=IC50 readout_value=160
compound="C=CS(=O)(=O)N1CC(C(=O)N2CCC(n3cc(-c4cc(OC)c5c(C#N)cnn5c4)cn3)CC2)C1 [Example 192]" measure=IC50 readout_value=12

----------
Listed next: entries and their corresponding log10 of IC50.
target: phosphorylated FGFR3 (SEQ ID NO: 5, amino acids 449 to 759) (Homo sapiens (Human), UniProt P22607)
MEASURE: log10 of IC50 (log10 of the value in nM)

compound=C=CC(=O)N1CC(C)(C(=O)N2CCC(n3cc(-c4cc(OC)c5c(C#N)cnn5c4)cn3)CC2)C1 measure="log10 of IC50" readout_value=0.30
compound="C=CC(=O)N1CC(CN2CCC(n3ncc(-c4cc(OC)c5c(C#N)cnn5c4)c3C)CC2)C1(C)C (stereo not drawn)" measure="log10 of IC50" readout_value=1.04
compound=C=CC(=O)N1CC(C#N)(C(=O)N2CCC(n3cc(-c4cc(OC)c5c(C#N)cnn5c4)cn3)CC2)C1 measure="log10 of IC50" readout_value=0.30
compound=COc1cc(-c2cnn(C3CCN(CC4CN(C(=O)/C=C/CN(C)C)C4)CC3)c2)cn2ncc(C#N)c12 measure="log10 of IC50" readout_value=0.60
compound=CC#CC(=O)N1CC(C(=O)N2CCC(n3cc(-c4cc(OC)c5c(C#N)cnn5c4)cn3)CC2)C1 measure="log10 of IC50" readout_value=1.04
compound=C=CC(=O)N1CC(C(=O)N2CC[C@H](n3cc(-c4cc(OC)c5c(C#N)cnn5c4)cn3)C2)C1 measure="log10 of IC50" readout_value=0.85
compound=C=CS(=O)(=O)N[C@H]1CC[C@H](C(=O)N2CCC(n3cc(-c4cc(OC)c5c(C#N)cnn5c4)cn3)CC2)C1 measure="log10 of IC50" readout_value=0.48
compound=CCc1c(-c2cc(OC)c3c(C#N)cnn3c2)cnn1C1CCN(C(=O)C2(F)CN(C(=O)/C=C/CN(C)C)C2)CC1 measure="log10 of IC50" readout_value=1.68
compound=C=CC(=O)N1CCC(NC(=O)c2ccc(-c3cc(OC)c4c(C#N)cnn4c3)cc2)CC1 measure="log10 of IC50" readout_value=1.68
compound=C=CC(=O)N1CC(F)(C(=O)N2CCC(n3ncc(-c4cc(OC)c5c(C#N)cnn5c4)c3CC)CC2)C1 measure="log10 of IC50" readout_value=1.86
compound=C=CC(=O)N1CCC(C(=O)N2CCC(n3cc(-c4cc(OC)c5c(C#N)cnn5c4)cn3)CC2)CC1 measure="log10 of IC50" readout_value=1.51
compound=COc1cc(-c2ccc(N3CCN(C(=O)C4(F)CN(C(=O)/C=C/CN(C)C)C4)CC3)nc2C)cn2ncc(C#N)c12 measure="log10 of IC50" readout_value=1.53
compound=C=CC(=O)N1CC2(CCN(C(=O)N3CCC(n4cc(-c5cc(OC)c6c(C#N)cnn6c5)cn4)CC3)CC2)C1 measure="log10 of IC50" readout_value=1.26
compound=COc1cc(-c2cnn(C3CCN(C(=O)C4CN(C(=O)C#CCO)C4)CC3)c2)cn2ncc(C#N)c12 measure="log10 of IC50" readout_value=0.00
compound=C=CC(=O)N1CC[C@H](C(=O)N2CC[C@@H](n3cc(-c4cc(OC)c5c(C#N)cnn5c4)cn3)C2)C1 measure="log10 of IC50" readout_value=1.40

Origin of the recorded values: patent US12180207B2
